- TEST TARGET: SARS-CoV-2 Main Protease (SARS-CoV-2) (UniProt P0DTD1)
Rule: IC50 below 2 µM gives Met. Equal to or above 2 µM gives Not met.

In: # strict comparison: is reported IC50 < 2 µM? input = O=C(CCl)N1CC2CC1CN2Cc1cccc(Cl)c1 (stereo not given)
Out: Not met

====

- TEST TARGET: SARS-CoV-2 Main Protease (SARS-CoV-2) (UniProt P0DTD1)
Rule: IC50 below 2000 nM gives satisfied. Equal to or above 2000 nM gives not satisfied.

Reference set (3 entries):
- MOLECULE: "O=CNc1ccc(C(=O)NC(c2ccccc2)C2CCOCC2)cc1 (centres undefined)"
  LABEL CLASS: "not satisfied"
- MOLECULE: "O=C(Nc1cncc2c1CNCC2)C1CCOc2ccc(Cl)cc21 (centres undefined)"
  LABEL CLASS: "not satisfied"
- MOLECULE: "O=C(NCc1ccccc1)[C@@H]1CN(C(=O)CCl)CCN1S(=O)(=O)c1ccsc1 (stereo in doubt)"
  LABEL CLASS: "satisfied"

In: # strict comparison: is reported IC50 < 2000 nM? input = Cc1ccncc1NC(=O)Cc1cc(Cl)cc(CNS(C)(=O)=O)c1
Out: not satisfied

In: Try O=C(NCc1ccc2[nH]c(=O)[nH]c2c1)Nc1ccc(F)c(F)c1 next.
Out: not satisfied

In: Try Cn1c(NC(=O)c2cccnc2-n2cccn2)nc2cc(F)ccc21 next.
Out: not satisfied

In: Try O=C(Cc1cc(Cl)cc(N2CCCCC2)c1)Nc1cncc2ccccc12 next.
Out: not satisfied

In: Try Cc1nccn1-c1ccc(Nc2cc(Cl)cc(CC(=O)Nc3cncc4ccccc34)c2)cc1 next.
Out: not satisfied

====

A short record of IC50 observed with SARS-CoV-2 Main Protease (SARS-CoV-2) (UniProt P0DTD1) follows.
The reply should be a number in µM, with the unit left off.

Answered examples (2):
- COMPOUND: "CC(C)(C)c1ccc(N(C(=O)c2cocn2)C(C(=O)NCCc2cccc(F)c2)c2cnccn2)cc1 (stereo not given)"
  MEASUREMENT NAME: "IC50"
  REPORTED RESULT: 1.21
- COMPOUND: "O=C(Cc1cc(Cl)cc(NCc2cc(F)ccc2Br)c1)Nc1cncc2ccccc12"
  MEASUREMENT NAME: "IC50"
  REPORTED RESULT: 1.88

// next entry
In: For the compound COc1ccncc1NC(=O)Cc1cccc(Cl)c1 , what IC50 is on record?
Out: 21.6

====

A short record of IC50 observed with SARS-CoV-2 Main Protease (SARS-CoV-2) follows.
The reply should be a number in µM, with the unit left off.

Answered examples (5):
- MOLECULE: "CC(C)(C)N(Cc1ccccc1)c1cc(Cl)cc(CC(=O)Nc2cncc3ccccc23)c1"
  TEST TARGET: "SARS-CoV-2 Main Protease (SARS-CoV-2)"
  UNITS SYMBOL: "µM"
  IC50: 1.91
- MOLECULE: "Cc1cc(C)nc(NC2CCN(C(=O)CCl)CC2)n1"
  TEST TARGET: "SARS-CoV-2 Main Protease (SARS-CoV-2)"
  UNITS SYMBOL: "µM"
  IC50: 27.6
- MOLECULE: "COc1nc2ncc(C(C(=O)NCCc3cccc(F)c3)N(C(=O)c3cocn3)c3ccc(C(C)(C)C)cc3)cn2n1 (stereo not given)"
  TEST TARGET: "SARS-CoV-2 Main Protease (SARS-CoV-2)"
  UNITS SYMBOL: "µM"
  IC50: 33.4
- MOLECULE: "Cn1cc(CN2Cc3ccc(Cl)cc3C(C(=O)Nc3cncc4ccc(F)cc34)C2)nn1 (stereo not given)"
  TEST TARGET: "SARS-CoV-2 Main Protease (SARS-CoV-2)"
  UNITS SYMBOL: "µM"
  IC50: 0.914
- MOLECULE: "Nc1cccc(C2CN(C(=O)CCl)Cc3ccccc32)c1 (stereo not given)"
  TEST TARGET: "SARS-CoV-2 Main Protease (SARS-CoV-2)"
  UNITS SYMBOL: "µM"
  IC50: 9.23

In: Test system SARS-CoV-2 Main Protease (SARS-CoV-2); read-out IC50; what value for C=CC(=O)N(c1ccc(C(C)(C)C)cc1)C(C(=O)NCc1ccc(F)cc1)c1cccnc1 (stereo not given) ?
Out: 23.3

In: Try O=C(Cc1cc(Cl)cc(Nc2ncc(Br)cc2O)c1)Nc1cncc2ccccc12 next.
Out: 3.23

====

A short record of pIC50 observed with SARS-CoV-2 Main Protease (SARS-CoV-2) follows.
Scale note: pIC50 = -log10(concentration in M).

Answered examples (3):
- COMPOUND: "CCOC(=O)CCNC(=O)C(c1cccnc1)N(C(=O)c1cocn1)c1ccc(C(C)(C)C)cc1 (centres undefined)"
  TEST TARGET: "SARS-CoV-2 Main Protease (SARS-CoV-2)"
  pIC50: 5.55
- COMPOUND: "O=C(NCc1ccc2c(c1)OCO2)c1nc(S(=O)(=O)Cc2ccccc2)ncc1Cl"
  TEST TARGET: "SARS-CoV-2 Main Protease (SARS-CoV-2)"
  pIC50: 5.85
- COMPOUND: "N#Cc1cnn(-c2ccc([N+](=O)[O-])cc2)c1Nc1cc(Cl)cc(CC(=O)Nc2cncc3ccccc23)c1"
  TEST TARGET: "SARS-CoV-2 Main Protease (SARS-CoV-2)"
  pIC50: 5.74

In: For the compound Cc1ccc2ccccc2c1Nc1cc(Cl)cc(CC(=O)Nc2cncc3ccccc23)c1 , what pIC50 is on record?
Out: 5.60

====

A short record of IC50 observed with UniProt:P0DTD1 follows.

- COMPOUND: "CN(C)C(=O)c1ccc2c(NC(=O)Cc3cccc(Cl)c3)cncc2c1"
  IC50: "2.44 µM"

In: Test system UniProt:P0DTD1; read-out IC50; what value for Cc1cccc(CN2CCN(c3nc4ccccc4nc3C)CC2)c1 ?
Out: > 99.5 µM

In: Try Cn1c(=O)oc2cc(S(=O)(=O)Nc3ccc4ncccc4c3)ccc21 next.
Out: > 99.5 µM

In: Try Cn1nc(C(C(=O)NCCc2cccc(F)c2)N(C(=O)c2ccco2)c2ccc(C(C)(C)C)cc2)c2ccccc21 (stereo not given) next.
Out: > 99.5 µM

In: Try O=C(NCCc1cccc(F)c1)C(c1cccnc1)N(C(=O)c1cocn1)[C@H]1C[C@H](Oc2ccccc2)C1 (stereo not given in full) next.
Out: > 99.5 µM

In: Try Cc1cc(Nc2cc(Cl)cc(CC(=O)Nc3cncc4ccccc34)c2)c(Cl)cc1F next.
Out: 2.15 µM

In: Try CC(C)(C)c1ccc(N(C(=O)c2cocn2)C(C(=O)NCc2ccncc2)c2cccnc2)cc1 (stereo not given) next.
Out: > 99.5 µM

====

Recorded measurements of Papp, one per entry
- TEST SETTINGS: pampa
The reply should be a number in nm/s, with the unit left off.

- MOLECULE: "COc1ccc(Cl)cc1OCCNC(=O)c1cc(=O)[nH]c2cccc(OC)c12"
  MEASUREMENT NAME: "Papp"
  REPORTED RESULT: 1090

// next entry
In: For the molecule C=CC(=O)N(C(=O)C1COc2ccc(Cl)cc21)c1cncc2ccccc12 (configuration not stated) , what Papp is on record?
Out: 4350

====

Recorded measurements of pIC50, one per entry
- TEST TARGET: SARS-CoV-2 Main Protease (SARS-CoV-2) (UniProt P0DTD1)
Scale note: pIC50 = -log10(concentration in M).

- COMPOUND: "CN1CCN(c2cncc3ccccc23)C(=O)C1c1cccc(Cl)c1 (centres undefined)"
  TEST TARGET: "SARS-CoV-2 Main Protease (SARS-CoV-2) (UniProt P0DTD1)"
  pIC50: 5.66
- COMPOUND: "N#CC1(CS(=O)(=O)N2Cc3ccc(Cl)cc3C3(CCN(c4cncc5ccccc45)C3=O)C2)CCCC1 (centres undefined)"
  TEST TARGET: "SARS-CoV-2 Main Protease (SARS-CoV-2) (UniProt P0DTD1)"
  pIC50: 6.61
- COMPOUND: "O=C(Cc1cc(Cl)cc(N2CCN(c3ccccc3[N+](=O)[O-])CC2)c1)Nc1cncc2ccccc12"
  TEST TARGET: "SARS-CoV-2 Main Protease (SARS-CoV-2) (UniProt P0DTD1)"
  pIC50: 5.40
- COMPOUND: "O=C(Cc1cc(Cl)cc(N[C@H]2C(O)O[C@H](CO)[C@@H](O)[C@@H]2O)c1)Nc1cncc2ccccc12 (stereo in doubt)"
  TEST TARGET: "SARS-CoV-2 Main Protease (SARS-CoV-2) (UniProt P0DTD1)"
  pIC50: 5.53
- COMPOUND: "O=C(Cc1cncc2ccccc12)Nc1cccc(Cl)c1"
  TEST TARGET: "SARS-CoV-2 Main Protease (SARS-CoV-2) (UniProt P0DTD1)"
  pIC50: 5.19

In: For the compound O=C(Cc1cc(Cl)cc(N2CCN(C(=O)OCc3ccccc3)CC2)c1)Nc1cncc2ccccc12 , what pIC50 is on record?
Out: 5.65
